src = ChEMBL document CHEMBL1201862

- Tested on: KM12
- assay_details: NCI tumour cell line growth inhibition, 48 h
Activity calls are given as the source filed them. Cut-off read from the data, not from the text of the source: active = GI50 up to about 1.1 µM and inactive = higher.
readout_label: GI50

query: Give GI50; test system KM12; molecule COc1cc2cc3c4c(cc(OC)c(OC)c4c2cc1OC)CCN3C(=O)OCCBr
result: 60.7 µM (inactive)

query: Retrieve GI50 on KM12; query Cc1ccc(C(=N)c2ccccc2Cc2cccc3ccccc23)c2ccccc12
result: > 100 µM (inactive)

query: // output GI50; input CC(=O)O[C@@H]1[C@H](C(C)C)[C@@H](OC(C)=O)C/C(C)=C/CC[C@]2(C)O[C@@H]12 ; system KM12
result: > 100 µM (inactive)

query: Provide the reported GI50 (system: KM12) for CC1(C)[C@@H](Cn2cc(I)c(=O)[nH]c2=O)CC[C@@]1(C)CO
result: > 100 µM (inactive)

query: State GI50 (KM12) of C(#C[C@@]12CCC[C@@H]1NCO2)c1ccc2c(c1)OCO2 .
result: 69.7 µM (inactive)

query: Under KM12: report GI50 of O=C(Nc1ccccc1)c1cc(S(=O)(=O)Nc2n[nH]c(=O)[nH]2)c(SSc2cc(Cl)c(C(=O)Nc3ccccc3)cc2S(=O)(=O)Nc2n[nH]c(=O)[nH]2)cc1Cl .
result: > 100 µM (inactive)

* * *

- System: MCF7
- assay_details: NCI tumour cell line growth inhibition, 48 h
The source made the active and inactive calls. Cut-off read from the data, not from the text of the source: active = GI50 up to about 1.1 µM and inactive = higher.
A correct response names exactly one class from 1 for active, 0 for inactive

query: Fill in: this test's call for N/C(=N\c1ccccc1)c1ccccc1N is ___
result: 0

query: Which outcome was entered for the compound Cc1c(/C=N/NC(=S)Nc2ccc(Cl)cc2)c(=O)n(-c2ccccc2)n1C in this test?
result: 0

query: What call does the record list for COc1ccc(/C=C/C(=O)Oc2ccc(/C=C3\CCCCC3=O)cc2)cc1 ?
result: 0

query: Which result was noted for this compound in the test: OC(C#Cc1ccccc1)(c1ccccc1)c1ccccc1
result: 0

query: Field: outcome | Entry: O=C1/C(=C/c2ccc3c(c2)CCC3)Cc2cc3c(cc21)CCC3
result: 0

query: Called result for COc1ccc(N2C(=O)C3c4[nH]c5ccccc5c4C4CCCCCCCCCC4C3C2=O)cc1 (stereo not drawn)
result: 0

query: # fetch the recorded call for Cn1c(=O)c2sc3cc4c(cc3c2c2ccccc21)sc1c(=O)n(C)c2ccccc2c14 here
result: 0

query: Would you mind telling me which call this test gave COc1cc(/C=N\NC(=O)C[N+](C)(C)C)cc(OC)c1OC ?
result: 0

query: Please indicate how the test categorized C=C1CC2(CCOc3ccc(Cl)cc32)OC1=O (stereo not drawn) .
result: 1

query: Hi, sorry to bother you, what did the test record for COC(=O)c1c(CC(Cc2ccc3c(c2)CCCC3)C(=O)O)ccc2c1CCCC2 (stereo not drawn) ?
result: 0

query: For COc1ccc(-c2nc(O)c3ccccc3n2)cc1OC , what call appears in the results of this test?
result: 0

query: Please share the test call associated with O=C(Nc1ccc(Cl)cc1)c1cc(S(=O)(=O)NC2=Nc3ccc(Cl)cc3C(c3ccccc3)N2)c(SSc2cc(Cl)c(C(=O)Nc3ccc(Cl)cc3)cc2S(=O)(=O)NC2=Nc3ccc(Cl)cc3C(c3ccccc3)N2)cc1Cl (stereo not drawn) .
result: 0

query: How was Clc1ccc2c(NCCNC3CCCCC3)ccnc2c1 classified in this test?
result: 0

query: Identify the outcome logged in this assay for the compound shown: Nn1c(Nc2ccc(S(=O)(=O)Nc3ncccn3)cc2)nnc(/C=C/c2c(O)ccc3ccccc23)c1=O
result: 0

query: Returns: the outcome recorded for Nc1nc(=O)c2cc(NCc3ccc(C(=O)NC(CCC(=O)O)C(=O)O)cc3)ccc2[nH]1 (stereo not drawn) in this assay.
result: 0

query: State the result this test recorded for NS(=O)(=O)OCCCCCCCOS(N)(=O)=O .
result: 0

query: Just curious, what result did CCC(=O)Oc1c2ccsc2c(OC(=O)CC)c2ccsc12 get here?
result: 0

query: Tell me the assay call for NC1=CN2c3ccccc3N(CC(=O)O)C2C=C1 (stereo not drawn) please.
result: 0

query: What call does the record list for CC(=O)c1cc2ccccc2oc1=O ?
result: 0

query: How did this test come out for C=CC1(CCC(Br)C(C)(C)Cl)CO1 (stereo not drawn) ?
result: 0

query: Identify the outcome logged in this assay for the compound shown: N#CC(C#N)=C1c2ccccc2C(=NN)c2ccccc21
result: 0

query: So what was the verdict on N#Cc1c(Cl)cccc1Oc1ccc(S(=O)(=O)N/C(=N\O)Nc2ccc(Cl)cc2)cc1 in this test?
result: 0

query: GET /call?item= Cc1noc(-c2ccc(C(=O)O)[nH]2)c1Br returns the recorded outcome of this test.
result: 0

* * *

Provide the recorded GI50 for the entries that follow.
- Test system: EKVX
- assay_details: NCI tumour cell line growth inhibition, 48 h
Calls of active or inactive are those of the source. Rule as the data show it: active = GI50 up to about 1.1 µM and inactive = higher.

query: Supply measured GI50 of CCOc1ccc(/C=C(\Cl)c2ccc(OC)c(OC)c2)cc1 in your reply.
result: 80.4 µM (inactive)

query: Quickly give me recorded GI50 for Cc1ccc(C(=N)c2ccccc2Cc2cccc3ccccc23)c2ccccc12
result: 60.1 µM (inactive)

query: Give GI50 for COC(=O)C1=CO[C@@H](OC2CC(CO)C(O)C(O)C2O)[C@@H]2[C@@H](C)[C@@H](OC(=O)/C=C/c3ccccc3)[C@@H](O)[C@H]12.COC(=O)C1=CO[C@@H](OC2CC(CO)C(O)C(O)C2O)[C@@H]2[C@@H](C)[C@@H](OC(=O)c3ccccc3)[C@@H](O)[C@H]12 (some centres undefined)
result: > 100 µM (inactive)

query: Complete the entry with GI50 for CCOn1cc(C[C@@]2(O)C(=O)OC3[C@@H](O)CO[C@@]32O)c2ccccc21 (some centres undefined)
result: > 100 µM (inactive)

* * *

Field: GI50. Provide a value for each of the compounds that follow.
- System: SK-MEL-28
- assay_details: NCI tumour cell line growth inhibition, 48 h
Active and inactive are the calls of the source. Cut-off read from the data, not from the text of the source: active = GI50 up to about 1.1 µM and inactive = higher.

query: Give reported GI50 value for N#CC(C#N)=C1c2ccccc2C(=NN)c2ccccc21
result: > 100 µM (inactive)

query: Using known records, supply GI50 for C(#C[C@@]12CCC[C@@H]1NCO2)c1ccc2c(c1)OCO2
result: 35.6 µM (inactive)

query: State, in one line, measured GI50 of Cc1ccc([N+](=O)[O-])cc1S(=O)(=O)Nc1ccc(C2=NN(S(=O)(=O)c3cc([N+](=O)[O-])ccc3C)C(c3ccccc3O)C2)cc1 (stereo not given)
result: > 100 µM (inactive)

query: Fill in GI50 for record Nc1ccccc1C(=O)C(Br)C(Br)c1ccc2c(c1)OCO2 (stereo not given)
result: 23.4 µM (inactive)

query: For the compound N#CC(C(=O)/C(=N\NC(N)=O)C(C#N)c1ccccc1)c1ccccc1 (stereo not given) , give its measured GI50 value.
result: > 100 µM (inactive)

query: Name the recorded GI50 of the compound listed here: O=C1C2C(C(=O)N1c1ccccc1)C1(Br)c3ccccc3C2(Br)C2C(=O)N(c3ccccc3)C(=O)C21 (stereo not given)
result: > 31.6 µM (inactive)

query: Tell me its GI50 given O=C(Cc1nc2ccc(C(=O)c3ccccc3)cc2nc1O)C(=O)Nc1ccc(Br)cc1 as the entry.
result: > 100 µM (inactive)

query: Identify the reported GI50 for the following entry. O=c1c2ccccc2oc2c1ccc1ncccc12
result: 23 µM (inactive)

query: Consider the compound O=C1NC(=S)NC(=O)C1=CC1CC1 . State its measured GI50.
result: > 100 µM (inactive)

query: Tell me GI50 reported for CCC1C(NC(=O)OC)C(=O)N1[C@@H](C)c1ccccc1 (stereo not given in full)
result: > 100 µM (inactive)

* * *

- Test system: M14
- assay_details: NCI tumour cell line growth inhibition, 48 h
Active and inactive are the calls of the source. No stated cut-off is given here; in the data, active = GI50 up to about 1.1 µM and inactive = higher.
Select the matching outcome among 1 = active, 0 = inactive

query: Query: recorded result category for CC(=O)NNc1nc(C)c(C(=O)NNC(=O)C(=O)Nc2c(C)cccc2C(C)C)s1 in this test
result: 0

query: Any idea what this test logged for CC1CCC(=O)C(C(=O)CC2CC(=O)NC(=O)C2)C1 (centres undefined) ?
result: 0

query: So what was the verdict on Cc1cn([C@@H]2O[C@H](CO[Si](C)(C)C(C)(C)C)[C@]3(O[C@H]3C(=O)NN)[C@H]2O[Si](C)(C)C(C)(C)C)c(=O)[nH]c1=O in this test?
result: 0

query: For CC1=C2C(=O)C(C)(C)C=C2C(=O)[C@](C)(O)C12CC2 [DEHYDROILLUDIN M] , which call appears in the assay record?
result: 1

query: Recorded call for Cc1ccc2c(sc(-c3ccc4c(c3)sc(-c3ccc(N(C)C)cc3)[n+]4C)[n+]2C)c1S(=O)(=O)O.Cc1ccc2c(sc(-c3ccc4c(c3)sc(-c3ccc5c(c3)sc(-c3ccc(N(C)C)cc3)[n+]5C)[n+]4C)[n+]2C)c1S(=O)(=O)O ?
result: 0

query: Entry CC(C)C(/C=C/c1ccccc1)=N\NC(=S)NN : call = ?
result: 0

query: Which outcome was entered for the molecule O=C(C(O)c1cn(Cc2ccccc2)c2ccccc12)N1CCCCC1 (centres undefined) in this test?
result: 0

query: Would you mind telling me which call this test gave CC(C)NCC(O)c1ccc(OCc2ccccc2)c(OCc2ccccc2)c1-c1ccccc1 (centres undefined) ?
result: 0

query: Could you please tell me the result logged for C(#C[C@@]12CCC[C@@H]1NCO2)c1ccc2c(c1)OCO2 in this assay?
result: 0

query: Give the logged outcome of this assay for the following molecule: CC1/C=C/[C@@]2(C)CCC(C(C)(C)O)C2C(O)C[C@](C)(O)/C=C/C1 (some centres undefined)
result: 0

query: Which outcome did this test record for the molecule O=C(N/N=C(/c1nc2ccc([N+](=O)[O-])cc2[nH]c1=O)C(O)c1ccc([N+](=O)[O-])cc1)c1ccncc1 (centres undefined) ?
result: 0

query: Can you look up the reported call for Cc1ccc(C(=N)c2ccccc2Cc2cccc3ccccc23)c2ccccc12 for me?
result: 0

query: Give the logged outcome of this assay for the following molecule: Cc1ccccc1/N=N/C(C(=O)c1ccccc1)C(=O)c1ccccc1
result: 0

query: Kindly provide the recorded test outcome for the following molecule: CC(=O)OC1CC2C(C)(C)C(=O)C=C[C@]2(C)C2CCC3(C)C(=CC(=O)C3c3ccoc3)[C@]12C (some centres undefined)
result: 0

query: # lookup: test call for CC(C)OP(=O)(OC(C)C)c1c(N)n[nH]c1Nc1ccccc1
result: 0

query: I would be grateful if you could indicate the recorded call for C[C@H](O)C1CC(Cn2nnc3c(N)ncnc32)C1(C)C (some centres undefined) .
result: 0

query: Tell me the assay call for CNC(N)NC please.
result: 0

query: Hi, do you know how O=[N+]([O-])c1ccc(C2CC(c3ccccc3Cl)=Nc3ccccc3S2)cc1 (centres undefined) came out in this test?
result: 0

query: Could you please tell me the result logged for NC1CC(=O)c2sccc21 (centres undefined) in this assay?
result: 0
